test: TIMS collisional cross section (CCS, N2) of the lipid ion; higher = larger ion cross section; details: sample type: Liver; ionization mode: positive; one isomer drawn
endpoint.label: TIMS collisional cross section (Å²)
Give the value, in units of Å², as a plain number.

These solved cases illustrate the format of a correct answer.
INSERT INTO assay_data (compound, endpoint_label, quantitative_readout) VALUES
  ('CCCCCCC/C=C\CCCCCCCC(=O)OC[C@H](COC(=O)CCCCCCCCCCC/C=C\CCCCCCCC)OC(=O)CCCCCCCCC/C=C\CCCCCCCC [TG 17:1_20:1_22:1] (ion (formula + adduct): [C62H114O6+NH4] 1+)', 'TIMS collisional cross section', 340),
  ('CCCCC/C=C\C/C=C\CCCCCCCC(=O)O[C@H](COC(=O)CCCCCCC/C=C\CCCCCC)COP(=O)([O-])OCC[N+](C)(C)C [PC 16:1_18:2] (ion (formula + adduct): [C42H78NO8P+H] 1+)', 'TIMS collisional cross section', 282.8),
  ('CCCCC/C=C\C/C=C\CCCCCCCC(=O)O[C@H](COC(=O)CCCCCCC/C=C\CCCCCCCC)COC(=O)CCCCCCCCCCCCCCCCCCCC [TG 18:1_18:2_21:0] (ion (formula + adduct): [C60H110O6+NH4] 1+)', 'TIMS collisional cross section', 334.4);

Let us examine a further case.
# query: TIMS collisional cross section of entry CCCCC/C=C\C/C=C\C/C=C\C/C=C\CCCC(=O)OC[C@@H](COC(=O)CCCCCCCCCCCCCCC)OC(=O)CCCCCCCCCCCCCCCCCCC [TG 16:0_20:0_20:4] (ion (formula + adduct): [C59H106O6+NH4] 1+)
332.3

* * *

assay: TIMS collisional cross section (CCS, N2) of the lipid ion; higher = larger ion cross section; conditions: sample type: HeLa; ionization mode: positive; one isomer drawn
endpoint.label: TIMS collisional cross section (Å²)
Give the value, in units of Å², as a plain number.

INSERT INTO results (compound, endpoint_label, quantitative_readout) VALUES
  ('CCCCCCCCCCCCC/C=C/[C@@H](O)[C@H](CO[C@@H]1O[C@H](CO)[C@@H](O)C(O)C1O)NC(=O)CCCCCCCCCCCCCCCCCCCCC (some centres not stated) [GlcCer d18:1_22:0@] (ion (formula + adduct): [C46H89NO8+H] 1+)', 'TIMS collisional cross section', 298.3);

Let us examine a further case.
# query: TIMS collisional cross section of entry CCCCCC/C=C\CCCCCCCC(=O)O[C@H](COC(=O)CCCCCCCCCCCCC)COP(=O)([O-])OCC[N+](C)(C)C [PC 14:0_16:1] (ion (formula + adduct): [C38H74NO8P+H] 1+)
275.8

* * *

assay: TIMS collisional cross section (CCS, N2) of the lipid ion; higher = larger ion cross section; details: sample type: Liver; ionization mode: positive; one isomer drawn
Output class 1 for TIMS collisional cross section not less than 300 Å²; output class 0 otherwise.

Here are 5 compounds together with their reported answers.
INSERT INTO measurements (compound, class) VALUES
  ('CCCC/C=C\C/C=C\CCCCCCCC(=O)OC[C@H](COC(=O)CCC/C=C\C/C=C\C/C=C\C/C=C\CCCCC)OC(=O)CCCCCCC/C=C\C/C=C\CCCCC [TG 17:2_18:2_20:4] (ion (formula + adduct): [C58H96O6+NH4] 1+)', 'class 1'),
  ('CCCCC/C=C\C/C=C\CCCCCCCC(=O)OC[C@@H](COC(=O)CCCCCCCCCCCCCCC)OC(=O)CCCCCCC/C=C\CCCCCCC [TG 16:0_17:1_18:2] (ion (formula + adduct): [C54H98O6+NH4] 1+)', 'class 1'),
  ('CCCCC/C=C\C/C=C\CCCCCCCC(=O)O[C@H](COC(=O)CCCCCCCCCCCCCCCC)COP(=O)([O-])OCC[N+](C)(C)C [PC 17:0@_18:2] (ion (formula + adduct): [C43H82NO8P+H] 1+)', 'class 0'),
  ('CCCCCC/C=C\CCCCCCCC(=O)OC[C@H](COC(=O)CCCCCCCCC/C=C\CCCCCCCC)OC(=O)CCCCCCC/C=C\CCCCCCCC [TG 16:1_18:1_20:1] (ion (formula + adduct): [C57H104O6+NH4] 1+)', 'class 1'),
  ('CCCCCCCCCCCCCCCC(=O)OCC(CO)OC(=O)CCCCCCCCCCCCCCC (centres undefined) [DG 16:0_16:0_0:0] (ion (formula + adduct): [C35H68O5+NH4] 1+)', 'class 0');

Reported TIMS collisional cross section at or above 300 Å²? CCCCC/C=C\C=C\CCCCCCCCC(=O)O[C@H](COC(=O)CCCCCCCCCCCCCCC)COP(=O)([O-])OCC[N+](C)(C)C [PC 16:0_18:2] (ion (formula + adduct): [C42H80NO8P+H] 1+)
class 0

* * *

experiment: TIMS collisional cross section (CCS, N2) of the lipid ion; higher = larger ion cross section; details: sample type: plasma; ionization mode: positive; one isomer drawn
endpoint.label: TIMS collisional cross section (Å²)
Give the value, in units of Å², as a plain number.

These solved cases illustrate the format of a correct answer.
INSERT INTO results (compound, endpoint_label, u, quantitative_readout) VALUES
  ('CCCCCCCCCCCCCCCC(=O)OCC(CO)OC(=O)CCCCCCCCCCCCCCC (stereo not drawn) [DG 16:0_16:0_0:0] (ion (formula + adduct): [C35H68O5+NH4] 1+)', 'TIMS collisional cross section', 'Å²', 259),
  ('CC/C=C\C/C=C\C/C=C\C/C=C\C/C=C\C/C=C\CCC(=O)O[C@H](COC(=O)CCCCCCCCCCCCCCC)COP(=O)(O)OCCN [PE 16:0@_22:6] (ion (formula + adduct): [C43H74NO8P+H] 1+)', 'TIMS collisional cross section', 'Å²', 279.1),
  ('CCCCCCCCCCCCCCCCCC(=O)OC[C@@H](COC(=O)CCCCCCCCCCCCCCC)OC(=O)CCCCCCCCCCCCCCCC [TG 16:0_17:0_18:0] (ion (formula + adduct): [C54H104O6+NH4] 1+)', 'TIMS collisional cross section', 'Å²', 323.4),
  ('CCCCC/C=C\C/C=C\C/C=C\CCCCCCC(=O)O[C@H](CO/C=C\CCCCCCCCCCCCCCCC)COP(=O)([O-])OCC[N+](C)(C)C [PC P- 18:0@_20:3] (ion (formula + adduct): [C46H86NO7P+H] 1+)', 'TIMS collisional cross section', 'Å²', 296.1),
  ('CCCCCCCC/C=C\CCCCCCCC(=O)OC[C@@H](COC(=O)CCCCCCCCCCCCCCCCC)OC(=O)CCCCCCC/C=C\CCCCCCCC [TG 18:0_18:1_18:1] (ion (formula + adduct): [C57H106O6+NH4] 1+)', 'TIMS collisional cross section', 'Å²', 328.45),
  ('CC/C=C\C/C=C\C/C=C\C/C=C\C/C=C\CCCC(=O)O[C@H](COC(=O)CCCCCCCCCCCCCCC)COP(=O)([O-])OCC[N+](C)(C)C [PC 16:0@_20:5] (ion (formula + adduct): [C44H78NO8P+H] 1+)', 'TIMS collisional cross section', 'Å²', 290.6),
  ('CCCCC/C=C\C/C=C\C/C=C\C/C=C\CCCCCC(=O)OC[C@@H](O)COP(=O)(O)OCCN [LPE 22:4] (ion (formula + adduct): [C27H48NO7P+H] 1+)', 'TIMS collisional cross section', 'Å²', 223.6),
  ('CCCCCC/C=C\CCCCCCCC(=O)OC[C@@H](COC(=O)CCCCCCCCCCCC)OC(=O)CCCCCCCCCCCCC [TG 13:0_14:0_16:1] (ion (formula + adduct): [C46H86O6+NH4] 1+)', 'TIMS collisional cross section', 'Å²', 296.1),
  ('CCCCC/C=C\C/C=C\CCCCCCCC(=O)OC[C@@H](COC(=O)CCCCCCC/C=C\CCCCCCCC)OC(=O)CCCCCCC/C=C\C/C=C\CCCCC [TG 18:1_18:2_18:2] (ion (formula + adduct): [C57H100O6+NH4] 1+)', 'TIMS collisional cross section', 'Å²', 322.17),
  ('CC/C=C\C/C=C\C/C=C\C/C=C\C/C=C\C/C=C\CCC(=O)O[C@H](CO/C=C\CCCCCCCCCCCCCC)COP(=O)(O)OCCN [PE P- 16:0@_22:6] (ion (formula + adduct): [C43H74NO7P+H] 1+)', 'TIMS collisional cross section', 'Å²', 277.4);

# query: TIMS collisional cross section of entry CC/C=C\C/C=C\C/C=C\C/C=C\C/C=C\CCCC(=O)OC[C@H](COP(=O)(O)O[C@H]1C(O)C(O)C(O)[C@@H](O)C1O)OC(=O)CCCCCCCCCCCCCCCCC (stereo partly drawn) [PI 20:5_18:0@] (ion (formula + adduct): [C47H81O13P+H] 1+)
308

# query: TIMS collisional cross section of entry [C@]12(CC=C3C[C@@H](O)CC[C@]3(C)[C@@]1([H])CC[C@]1(C)[C@@]([H])([C@@](C)([H])CC[C@@H]3O[C@@]3(C)C)CC[C@@]21[H])[H] [24,25-epoxy-cholesterol] (ion (formula + adduct): [C27H44O2+H] 1+)
210.5

# query: TIMS collisional cross section of entry CCCCCCCCCCCCCC(=O)OC[C@@H](O)COP(=O)([O-])OCC[N+](C)(C)C [LPC 14:0_0:0] (ion (formula + adduct): [C22H46NO7P+H] 1+)
222.55

Reference for the values: the supplement of paper PMC6965134
